Provenance of the data: ChEMBL document CHEMBL3797181

Test Protocol: AUC in NOD/SCID mouse plasma at 30 mg/kg, ip up to 24 hrs
Format: ADME, organism-based
Parameters: dose 30 mg/kg, time < 24 hr, route intraperitoneal
Metric: AUC at 24 h
Reply with a number, then the unit it belongs to.

Noted for `CN1CCN(c2ccc(-c3cccc(CN4CCOCC4)c3)cc2NC(=O)c2c[nH]c(=O)cc2C(F)(F)F)CC1` : its AUC at 24 h reads 6810 ng·h/mL

* * *

Test Protocol: Metabolic stability in mouse plasma assessed as parent compound remaining after 0.5 hrs
Type: ADME, cell-free
Particulars: read-out: Stability
Metric: remaining at 0.5 h
Reply with a number, then the unit it belongs to.

Noted for `CN1CCN(c2ccc(-c3cccc(CN4CCOCC4)c3)cc2NC(=O)c2c[nH]c(=O)cc2C(F)(F)F)CC1` : its remaining at 0.5 h reads 100%
